Can you tell me IC50 for the items I'm about to list?
- study.system: rsE-selectin (Homo sapiens)
- Sequence (P16581 22-556 limits assumed): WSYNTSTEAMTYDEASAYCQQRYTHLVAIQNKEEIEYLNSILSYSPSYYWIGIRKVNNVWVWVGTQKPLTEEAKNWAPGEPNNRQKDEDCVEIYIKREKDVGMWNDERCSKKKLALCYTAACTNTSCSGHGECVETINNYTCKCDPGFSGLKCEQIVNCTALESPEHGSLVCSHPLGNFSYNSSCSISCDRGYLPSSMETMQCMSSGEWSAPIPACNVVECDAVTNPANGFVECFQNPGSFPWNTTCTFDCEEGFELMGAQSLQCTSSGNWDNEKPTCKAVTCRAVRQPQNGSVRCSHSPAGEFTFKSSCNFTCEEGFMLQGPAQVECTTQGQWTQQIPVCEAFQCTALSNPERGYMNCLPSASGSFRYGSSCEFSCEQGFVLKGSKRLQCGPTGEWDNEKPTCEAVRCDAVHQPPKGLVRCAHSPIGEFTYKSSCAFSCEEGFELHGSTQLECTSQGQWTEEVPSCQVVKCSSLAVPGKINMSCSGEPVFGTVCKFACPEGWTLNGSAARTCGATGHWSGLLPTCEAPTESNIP
- assay.summary: Inhibition of adhesion of HL-60 cells to plate-coated rsE-selectin (Experiment 2)
- assay.setup: 50% inhibition concentration of adhesion of rsE-selectin to HL-60, from inhibition curves; medium-only well = 100%
# answer = value followed by unit

Identify IC50 associated with the molecule CCCCCCCCCOc1c(OC)cc(CCCO[C@@H]2O[C@H](CO)[C@@H](O[C@@H]3O[C@H](CO)[C@H](O)[C@H](O[C@]4(C(=O)O)C[C@H](O)[C@@H](NC(C)=O)[C@H]([C@H](O)[C@H](O)CO)O4)[C@H]3O)[C@H](O[C@@H]3O[C@@H](C)[C@@H](O)[C@@H](O)[C@@H]3O)[C@H]2NC(=O)c2ccc3ccccc3c2)cc1OC [Compound 40]
70 µM

Identify IC50 associated with the molecule CC(=O)N[C@H]1[C@H]([C@H](O)[C@H](O)CO)O[C@@](O[C@H]2[C@@H](O)[C@@H](CO)O[C@@H](O[C@H]3[C@H](O[C@@H]4O[C@@H](C)[C@@H](O)[C@@H](O)[C@@H]4O)[C@@H](NC(=O)c4ccc5ccccc5c4)[C@H](OCCOCCOCCO)O[C@@H]3CO)[C@@H]2O)(C(=O)O)C[C@@H]1O [Compound 34]
110 µM

Identify IC50 associated with the molecule CC(=O)N[C@H]1[C@H]([C@H](O)[C@H](O)CO)O[C@@](O[C@H]2[C@@H](O)[C@@H](CO)O[C@@H](O[C@H]3[C@H](O[C@@H]4O[C@@H](C)[C@@H](O)[C@@H](O)[C@@H]4O)[C@@H](NC(=O)c4ccc5ccccc5c4)[C@H](OCCOCc4ccccc4)O[C@@H]3CO)[C@@H]2O)(C(=O)O)C[C@@H]1O [Compound 33]
210 µM

Identify IC50 associated with the molecule CC(=O)N[C@H]1[C@H]([C@H](O)[C@H](O)CO)O[C@@](O[C@H]2[C@@H](O)[C@@H](CO)O[C@@H](O[C@H]3[C@H](O[C@@H]4O[C@@H](C)[C@@H](O)[C@@H](O)[C@@H]4O)[C@@H](NC(=O)c4ccc5ccccc5c4)[C@H](OCCCCCCCCCCCCO)O[C@@H]3CO)[C@@H]2O)(C(=O)O)C[C@@H]1O [Compound 37]
110 µM

Identify IC50 associated with the molecule CC(=O)N[C@H]1[C@H]([C@H](O)[C@H](O)CO)O[C@@](O[C@H]2[C@@H](O)[C@@H](CO)O[C@@H](O[C@H]3[C@H](O[C@@H]4O[C@@H](C)[C@@H](O)[C@@H](O)[C@@H]4O)[C@@H](NC(=O)c4ccc5ccccc5c4)[C@H](OCCCCCCCCCO)O[C@@H]3CO)[C@@H]2O)(C(=O)O)C[C@@H]1O [Compound 35]
50 µM
